Source of measurements: PubChem BioAssay (NCI)

System: HL-60(TB) leukemia
Assay: NCI tumour cell line growth inhibition, 48 h; in the data active = GI50 below about 0.43 µM; inactive = the rest
Return exactly one item of active, inactive

[
  {
    "given smiles": "CC(=O)OCC(=O)[C@@]1(O)[C@H](C)C[C@H]2[C@@H]3C=C(C)C4=Cc5c(cnn5-c5ccc(F)cc5)C[C@]4(C)[C@H]3[C@@H](O)C[C@@]21C",
    "category": "inactive"
  },
  {
    "given smiles": "COc1ccc(/C=C/C(=O)c2ccc(Nc3ncnc4ccccc34)cc2)cc1OC",
    "category": "inactive"
  },
  {
    "given smiles": "COc1ccc2c(c1)[nH]c(=O)c1c3cccnc3cn21",
    "category": "active"
  }
]

Now for another entry.
# input Hi, do you know how `COC(=O)C1=CN(CC2=CC(=O)C(C)=CC2=O)C=C(C(=O)OC)C1c1cccc(OC)c1OC` came out in this test?
# output inactive
